# Test system: SK-MEL-28 melanoma
# procedure-text: NCI-60 one-dose screen, 48 h
# reported-conditions: 10 µM unless noted
Compounds without any hit were thinned out: in the full panel of roughly 83,000, 20% have a hit. Activity calls are given as the source filed them. Rule for the calls: active = growth percent below 10; inactive = the rest.
Can you answer with just one of these options? true (1) = active, false (0) = inactive

molecule: Cc1ccc(N(CSc2ccc(Cl)cc2)CSc2ccc(Cl)cc2)cc1
qualitative-label: false (0)

molecule: COc1ccc(-c2cc(=O)oc3c4c(ccc23)OCN(Cc2ccc(F)cc2)C4)cc1
qualitative-label: false (0)

molecule: Cc1ccccc1-n1nnc(C(=O)Nc2nc(-c3ccccc3)c(-c3ccccc3)s2)c1C
qualitative-label: false (0)

Challenge: Status in this test for CCOC(=O)c1cc2c(n(C)c1=O)-c1cnn(-c3ccc(OC)cc3)c1CC2 ?
Response given: false (0)

Challenge: Status in this test for COc1ccc(C(=O)COc2cccc(/C=C3\CSc4ccc(C)cc4C3=O)c2)cc1 ?
Response given: false (0)

Challenge: Status in this test for O=S(=O)(/N=C1C=C/C(=N\S(=O)(=O)c2ccccc2)c2ccccc2\1)c1ccccc1 ?
Response given: false (0)

Challenge: Status in this test for C=CC(=O)N1CC2(CC(n3nc(-c4ccc(Oc5ccccc5)cc4)c4c(N)ncnc43)C2)C1 ?
Response given: false (0)

Challenge: Status in this test for Brc1ccc(Br)nn1 ?
Response given: true (1)

Challenge: Status in this test for COc1ccc(/C=C(\C#N)c2cc3ccccc3n2C)cc1 ?
Response given: false (0)

Challenge: Status in this test for CC(C)NCC(O)COc1ccc(CCOCC2CC2)cc1 (stereo unspecified) ?
Response given: false (0)

Challenge: Status in this test for O=C(CC(O)c1ccccc1)Nc1ccccn1 (stereo unspecified) ?
Response given: false (0)

Challenge: Status in this test for COc1cc(C2=NN(c3ccc(S(N)(=O)=O)cc3)C(c3ccc(Cl)cc3)C2)cc(OC)c1OC (stereo unspecified) ?
Response given: false (0)

Challenge: Status in this test for CCCCCCCC/C=C\CCCCCCCCOc1cccc(CC(=O)NCC[N+]2(C)CCCC2)c1 ?
Response given: false (0)

Challenge: Status in this test for Cc1nc2nc(C(F)(F)F)[nH]c2nc1C ?
Response given: false (0)

Challenge: Status in this test for COc1cccc(-c2ccc3c(c2)C2CCN(Cc4ccccc4)C3C2)c1 (stereo unspecified) ?
Response given: false (0)

Challenge: Status in this test for Brc1ccc(SCN(CSc2ccc(Br)cc2)Cc2ccccc2)cc1 ?
Response given: false (0)

Challenge: Status in this test for CC(=O)N(CC(O)CO)c1c(I)c(C(=O)NCCO)c(I)c(C(=O)NCC(O)CO)c1I (stereo unspecified) ?
Response given: false (0)

Challenge: Status in this test for CCN1CCN(C(=S)SCC(=O)Nc2nc3ccc(OC)cc3s2)CC1 ?
Response given: false (0)

Challenge: Status in this test for Cc1nc2cc(Nc3nc(Nc4ccc(F)cc4)nc(N4CCCC4)n3)ccc2n1Cc1ccccc1 ?
Response given: true (1)

Challenge: Status in this test for C(=C\c1ccccc1)/CN1CCN(C(c2ccccc2)c2ccccc2)CC1 ?
Response given: false (0)

Challenge: Status in this test for COc1cc(/C=C/C(=O)C2=C(/C=C/c3ccc(O)c(OC)c3)NC(=O)NC2c2ccc(O)c(OC)c2)ccc1O (stereo unspecified) ?
Response given: false (0)
